EXPERIMENT: Stability in rat liver microsomes assessed as compound remaining at 0.5 mM preincubated for 5 mins followed by NADPH addition and measured immediately by LC-MS/MS analysis
Format: ADME, Microsome
COND: read-out: Stability
MEASURED PARAMETER: remaining at 0 min (%)
Provide the reading as a plain figure in %.

Exam item: Give its remaining at 0 min value. Item: COc1nc(-c2ccc(NC(=O)Nc3ccc(C(=O)NCCCCCC(=O)Nc4ccccc4N)cc3)cc2)nc(N2CCOCC2)n1
Marked response: 100

###

TESTED ON: CYP2C9 (Homo sapiens)
Sequence (P11712 whole entry): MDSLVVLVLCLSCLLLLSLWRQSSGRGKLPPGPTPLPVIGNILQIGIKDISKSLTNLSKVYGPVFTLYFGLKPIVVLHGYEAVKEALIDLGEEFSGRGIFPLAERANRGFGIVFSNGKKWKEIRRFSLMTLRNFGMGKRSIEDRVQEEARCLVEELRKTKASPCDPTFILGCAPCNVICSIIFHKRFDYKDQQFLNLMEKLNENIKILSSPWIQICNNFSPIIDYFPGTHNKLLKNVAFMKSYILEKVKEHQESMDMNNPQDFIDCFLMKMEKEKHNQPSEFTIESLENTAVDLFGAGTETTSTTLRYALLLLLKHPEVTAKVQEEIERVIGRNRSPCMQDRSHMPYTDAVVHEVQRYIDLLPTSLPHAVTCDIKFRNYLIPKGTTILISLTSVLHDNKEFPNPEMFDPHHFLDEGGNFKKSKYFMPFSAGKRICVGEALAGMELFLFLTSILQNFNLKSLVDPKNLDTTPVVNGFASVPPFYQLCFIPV
EXPERIMENT: Inhibition of CYP2C9 in human liver microsomes using diclofenac as substrate at 10 uM in presence of NADPH regenerating system by LC-MS/MS analysis relative to control
Assay type: ADME, Microsome
COND: probe diclofenac
MEASURED PARAMETER: inhibition at 10 µM (%)
Provide the reading as a plain figure in %.

Exam item: Give its inhibition at 10 µM value. Item: COc1nc(-c2ccc(NC(=O)Nc3ccc(C(=O)NCCCCCC(=O)Nc4ccccc4N)cc3)cc2)nc(N2CCOCC2)n1
Marked response: 37.4
